experiment: % transmission spectrum of 0.1% solution (breakthrough, steepness); type: physicochemical; conditions: value in nm where transmittance increases beyond 1%; 0.1% solution
property-measured: Breakthrough (1% T at 0.1%) (nm)
Answer with a number only, understood to be in nm.

{"smi": "COc1ccccc1C(=O)/C(=C/N1CCc2ccccc21)c1ccccc1", "recorded-measurement": 406}
{"smi": "CCN(/C=C(/C(=O)C(=O)OC(C)(C)C)c1ccccc1)c1ccccc1", "recorded-measurement": 381}
{"smi": "COC(=O)c1ccc2c(c1)CCN2/C=C(/C(=O)c1ccccc1O[Si](C)(C)C(C)(C)C)c1ccccc1", "recorded-measurement": "01"}
{"smi": "CCN(/C=C(/C(=O)C(F)(F)F)c1ccccc1)c1ccc(C(=O)OC)cc1", "recorded-measurement": 391}
{"smi": "COC(=O)c1ccc2c(c1)CCN2/C=C(/C(=O)OC1(C)CCCCC1)c1ccccc1", "recorded-measurement": 383}

### Prompt What does the record list as Breakthrough (1% T at 0.1%) for `CC(C)(C)OC(=O)C(=O)/C(=C/N1CCc2ccccc21)c1ccccc1` ?
### Response 417

### Prompt Which measured Breakthrough (1% T at 0.1%) value corresponds to `CN(C)C(=O)C(=O)/C(=C/N(c1ccccc1)c1ccccc1)c1ccccc1` ?
### Response 394

### Prompt Using the record for `COC(=O)c1ccc2c(c1)CCN2/C=C(/C(=O)C(=O)OC(C)(C)C)c1ccccc1` , report its Breakthrough (1% T at 0.1%).
### Response 419

### Prompt Could you share which Breakthrough (1% T at 0.1%) value was measured for `CCN(/C=C(/C(=O)c1ccccc1OC)c1ccccc1)c1ccccc1` ?
### Response 379

### Prompt Please give the measured Breakthrough (1% T at 0.1%) for this molecule: `O=C(/C(=C/N(c1ccccc1)c1ccccc1)c1ccccc1)c1ccccc1`
### Response 407

### Prompt Quick one: Breakthrough (1% T at 0.1%) for `COC(=O)c1ccc2c(c1)CCN2C=C(C(=O)C(C)(C)C)c1ccc(C)cc1` ?
### Response 402

### Prompt What does the data say about its Breakthrough (1% T at 0.1%)? Entry: `O=C(/C(=C\N1CCc2ccc(C(F)(F)F)cc21)c1ccccc1)C(F)(F)F`
### Response 409

### Prompt Quick check: Breakthrough (1% T at 0.1%) of `CCCCN(/C=C(/C(=O)C(F)(F)F)c1ccccc1)c1ccccc1` ?
### Response 381

### Prompt Quick check: Breakthrough (1% T at 0.1%) of `O=C(/C(=C\N(c1ccccc1)c1ccccc1)c1ccccc1)C(F)(F)F` ?
### Response 402

---

Attribute: λmax
test: UV absorbance spectrum in solution (λmax, λcrit, extinction coefficients); assay type: physicochemical
Give the number; nm is assumed, so skip it.

Worked set:
{"compound": "O=C(/C(=C\\N1CCc2cc(Br)ccc21)c1ccccc1)C(F)(F)F", "quantity-unit": "nm", "recorded-measurement": 371}
{"compound": "CCOc1ccc(/C(=C/N(CC)c2ccccc2)C(=O)C(F)(F)F)cc1", "quantity-unit": "nm", "recorded-measurement": 335}
{"compound": "O=C(/C(=C\\N1CCCCC1)c1ccccc1)C(F)(F)F", "quantity-unit": "nm", "recorded-measurement": 322}

### Prompt Need λmax, item `Cc1ccccc1C(=O)/C(=C/N(c1ccccc1)c1ccccc1)c1ccccc1`
### Response 341

### Prompt Which λmax value belongs to `O=C(/C(=C\N1CCc2cc([N+](=O)[O-])ccc21)c1ccccc1)C(F)(F)F` ?
### Response 398

### Prompt Return reported λmax; argument: CCCCC(CC)COC(=O)c1ccc2c(c1)CCN2/C=C(/C(=O)C(C)(C)C)c1ccc(C#N)cc1 (centres unmarked)
### Response 368

### Prompt Would you kindly share the measured λmax for `O=C(/C(=C\N1CCCC1)c1ccccc1)C(F)(F)F` ?
### Response 323

### Prompt Return reported λmax; argument: `CCN(/C=C(/C(=O)c1ccccc1C)c1ccccc1)c1ccccc1`
### Response 323

### Prompt What does the record list as λmax for CCCCC(CC)COC(=O)c1ccc2c(c1)CCN2C=C(C(=O)c1c(C)cc(C)cc1C)c1ccccc1 (centres unmarked) ?
### Response 369

### Prompt Form field: reported λmax of `Cc1ccc(C(=O)/C(=C/N2CCc3ccccc32)c2ccccc2)cc1`
### Response 362

### Prompt Returns the measured λmax for the input compound. Input: CCCCC(CC)COC(=O)c1cccc(N(/C=C(/C(=O)C(F)(F)F)c2ccccc2)CC)c1 (centres unmarked)
### Response 334

### Prompt Can you look up the measured λmax of `O=C(/C(=C\N1CCc2ccc([N+](=O)[O-])cc21)c1ccccc1)C(F)(F)F` for me?
### Response 355

### Prompt // λmax lookup, key: CCCCC(CC)COC(=O)c1ccc2c(c1)CCN2C=C(C(=O)C(C)(C)C)c1ccccc1 (centres unmarked)
### Response 367

### Prompt Please look up its λmax: CCCCC(CC)COc1cccc(N(/C=C(\C(=O)C(F)(F)F)c2ccccc2)CC)c1 (centres unmarked)
### Response 332

### Prompt Reported λmax, compound `O=C(/C(=C\N1CCc2cc(F)ccc21)c1ccccc1)C(F)(F)F` : ____
### Response 368

### Prompt Would you kindly share the measured λmax for `O=C(/C(=C\N1CCc2ccccc2C1)c1ccccc1)C(F)(F)F` ?
### Response 321

### Prompt Could you share which λmax value was measured for `CCN(/C=C(/C(=O)C(=O)OC(C)(C)C)c1ccccc1)c1ccccc1` ?
### Response 332

---

compounds and their reported Photostability (% remains)
Assay: Photostability protocol: thin film irradiated with xenon arc lamp
Assay type: physicochemical
Details: 1 hour xenon arc lamp
Protocol: 1 mL of a 3% solution of the test compound (30 mg of test compound in 1 mL solvent) was prepared in a solvent mix made up of 50% EtOH and 25% capric/caprylic triglyceride and 25% C12-C15 alkyl benzoate. […] One hour's exposure represented a calculated radiation dose (using meter) of approximately 100 MED. […]
Answer by giving the amount and then stating its unit.

Solved cases below.
{"compound": "COc1ccc2c(c1)CCN2/C=C(\\C(=O)C(F)(F)F)c1ccccc1", "Photostability (% remains)": "91%"}
{"compound": "O=C(/C(=C\\N1CCc2ccccc21)c1ccccc1)C(F)(F)F", "Photostability (% remains)": "99%"}
{"compound": "O=C(OCCCOC(=O)c1ccc2c(c1)CCN2/C=C(\\C(=O)C(F)(F)F)c1ccccc1)c1ccc2c(c1)CCN2/C=C(\\C(=O)C(F)(F)F)c1ccccc1", "Photostability (% remains)": "95%"}
{"compound": "CCCCC(CC)COC(=O)c1ccc2c(c1)CCN2/C=C(\\C(=O)C(F)(F)F)c1ccccc1 (stereo not shown)", "Photostability (% remains)": "85%"}
{"compound": "CCN(/C=C(\\C(=O)c1c(F)c(F)c(F)c(F)c1F)c1ccccc1)CC", "Photostability (% remains)": "31%"}

### Prompt Report Photostability (% remains) for `CCN(/C=C(\C(=O)C(F)(F)C(F)(F)C(F)(F)F)c1ccccc1)c1ccccc1` please.
### Response 95%

### Prompt For the compound `CCN(/C=C(\C(C)=O)c1ccccc1)CC` , what Photostability (% remains) is on record?
### Response 6%

### Prompt # input compound: `COC(=O)c1ccc2c(c1)CCN2/C=C(\C(=O)C(F)(F)F)c1ccccc1` ; wanted: its Photostability (% remains)
### Response 97%

### Prompt Bench note: what Photostability (% remains) did CCCCC(CC)COC(=O)c1ccc(N(/C=C(\C(=O)C(F)(F)F)c2ccccc2)CC)cc1 (stereo not shown) show?
### Response 85%

### Prompt Field request: Photostability (% remains) | item: `CCOC(=O)/C(=C\N(C)C)c1ccccc1`
### Response 18%

---

Items are presented alongside their recorded λmax.
assay: UV absorbance spectrum in solution (λmax, λcrit, extinction coefficients); type: physicochemical
Quick reminder: number only, in nm, skip the unit.

Solved entries:
{"compound": "COC(=O)c1ccc2c(c1)CCN2C=C(C(=O)c1c(C)cc(C)cc1C)c1ccccc1", "λmax (nm)": 368}
{"compound": "CCN(/C=C(\\C(=O)C(F)(F)F)c1ccccc1)c1cccc(C)c1", "λmax (nm)": 331}

### Prompt For the compound shown here, `N#CCC(=O)/C(=C\N1CCc2ccccc21)c1ccccc1` , give the reported λmax.
### Response 361

### Prompt Can you share its λmax? I mean this compound: `C=CCN(/C=C(\C(=O)C(F)(F)F)c1ccccc1)c1ccccc1`
### Response 331

### Prompt What does the data say about its λmax? Entry: `CCN(/C=C(\C(=O)C(F)(F)F)c1ccccc1)c1ccc(Br)cc1`
### Response 332

---

experiment: UV absorbance spectrum in solution (λmax, λcrit, extinction coefficients); format: physicochemical; details: critical wavelength
# λcrit values compiled below
Express your answer in nm, writing the number without its unit.

Use these answered entries as a reference point.
{"compound": "O=C(/C(=C\\N1CCc2ccc(C(F)(F)F)cc21)c1ccccc1)C(F)(F)F", "λcrit (nm)": 387}
{"compound": "COC(=O)c1ccc2c(c1)CCN2/C=C(/C(=O)C(=O)Oc1ccccc1)c1ccccc1", "λcrit (nm)": 392}
{"compound": "Cc1cc(C)c(C(=O)/C(=C\\N2CCc3cc(C(=O)OCCCOC(=O)c4ccc5c(c4)CCN5/C=C(/C(=O)c4c(C)cc(C)cc4C)c4ccccc4)ccc32)c2ccccc2)c(C)c1", "λcrit (nm)": 384}
{"compound": "O=C(/C(=C\\N1CCN(/C=C(/C(=O)C(F)(F)F)c2ccccc2)CC1)c1ccccc1)C(F)(F)F", "λcrit (nm)": 360}

### Prompt Which value of λcrit has been reported for `CCN(/C=C(/C(=O)c1ccc(C)cc1)c1ccccc1)c1ccccc1` in the records?
### Response 376

### Prompt Which λcrit value is on record for `CN(C)S(=O)(=O)c1ccc(C(=O)/C(=C/N(c2ccccc2)c2ccccc2)c2ccccc2)cc1` ?
### Response 387

### Prompt Request the reported λcrit associated with `Cc1ccc2c(c1)CCN2/C=C(\C(=O)C(F)(F)F)c1ccccc1`
### Response 391

### Prompt Returns the measured λcrit for the input compound. Input: `O=C(/C(=C\N1CCOCC1)c1ccccc1)C(F)(F)F`
### Response 351

### Prompt Recorded λcrit of `O=C(/C(=C/N1CCc2ccccc21)c1ccccc1)c1ccccc1` , please.
### Response 386

### Prompt Which value of λcrit has been reported for CCCCC(CC)COc1ccc(N(/C=C(\C(=O)C(F)(F)F)c2ccccc2)CC)cc1 (centres unmarked) in the records?
### Response 371
